target: SAP (Homo sapiens, UniProt P02743); assay: Inhibition of binding of 125I radiolabelled SAP to influenza virus immobilized in microtitre plates; set-up: 5 μl of radiolabelled SAP in TN; from tissue; conditions: compound 200 nM; read-out: Percent inhibition of binding of radiolabelled SAP to immobilized influenza virus
Sequence (P02743 20-223): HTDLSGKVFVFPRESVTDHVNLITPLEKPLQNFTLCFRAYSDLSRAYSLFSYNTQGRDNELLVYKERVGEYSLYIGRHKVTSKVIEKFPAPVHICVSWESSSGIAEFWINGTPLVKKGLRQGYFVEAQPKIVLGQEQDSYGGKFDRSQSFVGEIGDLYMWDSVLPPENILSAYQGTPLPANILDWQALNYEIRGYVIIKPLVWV
Please respond with reported inhibition at 0.2 µM for every item in the list.
Give bare numbers, in %.

Here's what some known entries look like.
[
  {
    "molecule": "O=C(O)[C@H]1CCCN1C(=O)COc1ccccc1OCC(=O)N1CCC[C@@H]1C(=O)O [Ro-63-8593]",
    "numeric.readout": 44
  },
  {
    "molecule": "O=C(O)[C@H]1CCCN1C(=O)Cc1ccc(CC(=O)N2CCC[C@@H]2C(=O)O)c2ccccc12 [Ro-64-5607]",
    "numeric.readout": 4
  },
  {
    "molecule": "C[C@H](CSSC[C@@H](C)C(=O)N1CCC[C@@H]1C(=O)O)C(=O)N1CCC[C@@H]1C(=O)O [Ro-63-3300]",
    "numeric.readout": 47
  },
  {
    "molecule": "O=C(O)[C@H]1CCCN1C(=O)Cc1cccc(CC(=O)N2CCC[C@@H]2C(=O)O)c1 [Ro-64-2668]",
    "numeric.readout": 25
  }
]

Next item in the queue.
For the molecule NCCOP(=O)(O)O [Phosphoethanolamine, reference compound] , give its measured inhibition at 0.2 µM value. 1
